- targetDesc: HIV-1 pseudovirus SC05.8C11.2344 (HIV-1)
- measurementNotes: cell-based or functional assay
Documented IC50 (neutralization in TZM.bl cells) across a set of binders
Numeric answer only, unit µg/mL assumed.

binder	unitOfMeasurement	IC50 (neutralization in TZM.bl cells)
MS-92 (antibody, V domains shown) VH: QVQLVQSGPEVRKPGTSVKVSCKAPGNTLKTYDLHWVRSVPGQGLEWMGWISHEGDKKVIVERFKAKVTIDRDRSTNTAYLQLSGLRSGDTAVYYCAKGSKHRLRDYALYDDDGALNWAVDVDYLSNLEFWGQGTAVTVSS VL: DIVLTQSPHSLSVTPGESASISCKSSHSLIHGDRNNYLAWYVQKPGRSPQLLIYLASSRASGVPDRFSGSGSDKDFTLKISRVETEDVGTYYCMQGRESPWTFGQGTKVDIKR	µg/mL	1.54

Task: Query (binder): MS-81 (antibody, V domains shown) VH: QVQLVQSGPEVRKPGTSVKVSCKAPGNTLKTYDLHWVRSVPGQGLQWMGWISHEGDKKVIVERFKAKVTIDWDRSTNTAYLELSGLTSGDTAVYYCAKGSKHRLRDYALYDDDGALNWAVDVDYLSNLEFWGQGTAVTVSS VL: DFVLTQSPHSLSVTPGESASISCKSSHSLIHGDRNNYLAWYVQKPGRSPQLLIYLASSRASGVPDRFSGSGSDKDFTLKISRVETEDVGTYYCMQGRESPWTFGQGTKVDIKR ; field requested: IC50 (neutralization in TZM.bl cells)
Result: 0.537
